System: Saccharomyces cerevisiae BY4741 SeMeCo community
Assay: z-score of subpopulation abundance vs DMSO median, subpopulation auxotrophic for LM; higher = larger share of this subpopulation than in DMSO controls
Details: 10 µM; 24 h; SM minimal medium; subpopulation (auxotrophy): LM
Where a name gives a salt, the structure may show the parent alone.
Rule: z-score of subpopulation abundance under 0.1 gives Not satisfied, otherwise Satisfied.

Assess whether reported z-score of subpopulation abundance for CN[C@@H]1[C@H](O)[C@H](NC)[C@H]2O[C@@]3(O)C(=O)C[C@@H](C)O[C@H]3O[C@@H]2[C@H]1O [Spectinomycin 2HCl] sits at 0.1 or higher.
Not satisfied

Assess whether reported z-score of subpopulation abundance for Cc1[nH]cnc1CN1CCc2c(c3ccccc3n2C)C1=O [Alosetron Hydrochloride] sits at 0.1 or higher.
Satisfied

Assess whether reported z-score of subpopulation abundance for Cc1onc(-c2c(Cl)cccc2Cl)c1C(=O)N[C@@H]1C(=O)N2[C@@H]1SC(C)(C)[C@@H]2C(=O)O [Dicloxacillin Sodium] sits at 0.1 or higher.
Satisfied

Assess whether reported z-score of subpopulation abundance for "COC(=O)C1=C(C)NC(C)=C(C(=O)OC)C1c1ccccc1[N+](=O)[O-]" sits at 0.1 or higher.
Satisfied

Assess whether reported z-score of subpopulation abundance for C=C[C@]1(C)C[C@@H](OC(=O)CSC(C)(C)CNC(=O)[C@H](N)C(C)C)[C@]2(C)[C@H](C)CC[C@]3(CCC(=O)[C@H]32)[C@@H](C)[C@@H]1O [Valnemulin HCl] sits at 0.1 or higher.
Satisfied

Assess whether reported z-score of subpopulation abundance for CC(C(=O)O)c1ccc2c(c1)Cc1cccnc1O2 (stereo not given) sits at 0.1 or higher.
Not satisfied

Assess whether reported z-score of subpopulation abundance for "CCCN1C[C@H](C)[C@@H](O)[C@](C)(O)[C@@H](CC)OC(=O)[C@H](C)[C@@H](O[C@H]2C[C@@](C)(OC)[C@@H](O)[C@H](C)O2)[C@H](C)[C@@H](O[C@@H]2O[C@H](C)C[C@H](N(C)C)[C@H]2O)[C@](C)(O)C[C@H]1C" sits at 0.1 or higher.
Satisfied

Assess whether reported z-score of subpopulation abundance for N/C(=N\N=C\c1ccc(Cl)cc1)N/N=C/c1ccc(Cl)cc1 [Robenidine Hydrochoride] sits at 0.1 or higher.
Satisfied

Assess whether reported z-score of subpopulation abundance for CC[N+](C)(C)c1cccc(O)c1 [Edrophonium chloride] sits at 0.1 or higher.
Not satisfied

Assess whether reported z-score of subpopulation abundance for "Nc1nc2ccc(OC(F)(F)F)cc2s1" sits at 0.1 or higher.
Satisfied

Assess whether reported z-score of subpopulation abundance for COCCOC(=O)C1=C(C)NC(C)=C(C(=O)OC(C)C)C1c1cccc([N+](=O)[O-])c1 (stereo not given) sits at 0.1 or higher.
Not satisfied

Assess whether reported z-score of subpopulation abundance for CC(=O)OCC1=C(C(=O)O)N2C(=O)C(NC(=O)CSC(=NC(C)C)NC(C)C)C2SC1 (stereo not given) sits at 0.1 or higher.
Not satisfied

Assess whether reported z-score of subpopulation abundance for COc1ccc2cc3[n+](cc2c1OC)CCc1cc2c(cc1-3)OCO2 [Berberine chloride] sits at 0.1 or higher.
Satisfied

Assess whether reported z-score of subpopulation abundance for COC(=O)C1=C(C#N)NC(C)=C(C(=O)OC(C)C)C1c1cccc([N+](=O)[O-])c1 (stereo not given) sits at 0.1 or higher.
Not satisfied

Assess whether reported z-score of subpopulation abundance for CC1CCc2c(N3CCC(O)CC3)c(F)cc3c(=O)c(C(=O)O)cn1c23 (stereo not given) sits at 0.1 or higher.
Not satisfied

Where do these numbers come from? They come from the supplement of paper PMC8975748.
